Data provenance is the supplement of paper PMC9233669.

- System: biotinyl-Val-oxazolone
- assay_text: self-aminoacylation, catalytic enhancement (BVO) (fold over background); higher = more active; k-Seq, kA / k0A0; sequences stand for … in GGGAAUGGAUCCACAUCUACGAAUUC…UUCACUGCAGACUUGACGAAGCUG
This sample holds only a part of the variants without activity.
Recorded self-aminoacylation, one value per entry.

{"sequence_input": "AUUGACCUAGGUCAACGGGUG [Fam2.2 aminoacylation ribozyme variant]", "measured_on": "biotinyl-Val-oxazolone", "self-aminoacylation": 2.31}
{"sequence_input": "CUAUUUCAAACAAUCGGACUG [Fam1A.1 aminoacylation ribozyme variant]", "measured_on": "biotinyl-Val-oxazolone", "self-aminoacylation": 0.733}
{"sequence_input": "AAGUCUGCUAAUAUUCGCAAG [Fam3.1 aminoacylation ribozyme variant]", "measured_on": "biotinyl-Val-oxazolone", "self-aminoacylation": 1.06}
{"sequence_input": "CUACUUCAGACAAUGGGUCUG [Fam1A.1 aminoacylation ribozyme variant]", "measured_on": "biotinyl-Val-oxazolone", "self-aminoacylation": 0.791}

====

- System: biotinyl-Val-oxazolone
- assay_text: self-aminoacylation, catalytic enhancement (BVO) (fold over background); higher = more active; k-Seq, kA / k0A0; sequences stand for … in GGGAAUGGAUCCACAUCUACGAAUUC…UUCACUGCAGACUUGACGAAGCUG
Variants at the floor of the assay were thinned out.
Listed here are sequences together with their documented self-aminoacylation.
measured_endpoint: self-aminoacylation

{"sequence_input": "GUACUUCAAACAAUCGGUCUC [Fam1A.1 aminoacylation ribozyme variant]", "measured_endpoint": "self-aminoacylation", "assay_value": 1.4}
{"sequence_input": "AUUACCCAGGUCAUCGAUUGA [Fam2.1 aminoacylation ribozyme variant]", "measured_endpoint": "self-aminoacylation", "assay_value": 0.759}
{"sequence_input": "AAGUAUGCUAAUAUUCGCAAG [Fam3.1 aminoacylation ribozyme variant]", "measured_endpoint": "self-aminoacylation", "assay_value": 1.46}
{"sequence_input": "GUUCACCUAGGUGAUCGGGUG [Fam2.2 aminoacylation ribozyme variant]", "measured_endpoint": "self-aminoacylation", "assay_value": 3.88}
{"sequence_input": "ACUCAUCUAGGUCAUCGGGUG [Fam2.2 aminoacylation ribozyme variant]", "measured_endpoint": "self-aminoacylation", "assay_value": 5.04}
{"sequence_input": "AUGACCCUGGUGAUCGAGUGA [Fam2.1 aminoacylation ribozyme variant]", "measured_endpoint": "self-aminoacylation", "assay_value": 2.44}
{"sequence_input": "CUACUGUAAACAAUCGGUCUG [Fam1A.1 aminoacylation ribozyme variant]", "measured_endpoint": "self-aminoacylation", "assay_value": 0.741}
{"sequence_input": "CGACUUCAAACAAUCGCUCUG [Fam1A.1 aminoacylation ribozyme variant]", "measured_endpoint": "self-aminoacylation", "assay_value": 1.24}
{"sequence_input": "CGACACUUCAAGCAAUUGGUC [Fam1B.1 aminoacylation ribozyme variant]", "measured_endpoint": "self-aminoacylation", "assay_value": 0.718}

====

- Tested on: biotinyl-Phe-oxazolone
- assay_text: self-aminoacylation, catalytic enhancement (BFO) (fold over background); higher = more active; k-Seq, kA / k0A0; sequences stand for … in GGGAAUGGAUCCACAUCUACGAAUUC…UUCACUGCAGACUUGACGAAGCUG
Variants at the floor of the assay were thinned out.
Examples of sequences with documented self-aminoacylation follow.

{"sequence_input": "GUUCACCUAGGUGAUCGGGUG [Fam2.2 aminoacylation ribozyme variant]", "self-aminoacylation": 21}
{"sequence_input": "CCACACUUCAACCGAUCGGUC [Fam1B.1 aminoacylation ribozyme variant]", "self-aminoacylation": 3.75}
{"sequence_input": "AGUCACCUAGGUAAUCGGGUG [Fam2.2 aminoacylation ribozyme variant]", "self-aminoacylation": 25.4}
{"sequence_input": "UAGUUUGCUAAUAGUCGCAAA [Fam3.1 aminoacylation ribozyme variant]", "self-aminoacylation": 1.58}
{"sequence_input": "AUUCACUUAGGUCAUUGGGUG [Fam2.2 aminoacylation ribozyme variant]", "self-aminoacylation": 25.2}
{"sequence_input": "AAGUUUGCUAAUUGUCGCAAU [Fam3.1 aminoacylation ribozyme variant]", "self-aminoacylation": 6.81}
{"sequence_input": "CCACACUACAAGCAAUCGGUU [Fam1B.1 aminoacylation ribozyme variant]", "self-aminoacylation": 1.55}
{"sequence_input": "AUUCACUAAGGUCAUCGGGUG [Fam2.2 aminoacylation ribozyme variant]", "self-aminoacylation": 37.7}
{"sequence_input": "CUACUGUAAACAAUCGGUCUG [Fam1A.1 aminoacylation ribozyme variant]", "self-aminoacylation": 0.659}
{"sequence_input": "AAGUUUGCUAAUAGACGCGAG [Fam3.1 aminoacylation ribozyme variant]", "self-aminoacylation": 0.443}
{"sequence_input": "GUACAUCAAACAAUCGGUCUG [Fam1A.1 aminoacylation ribozyme variant]", "self-aminoacylation": 2}
{"sequence_input": "AUUAUCCUGGUCAUCGAGAGA [Fam2.1 aminoacylation ribozyme variant]", "self-aminoacylation": 1.15}
{"sequence_input": "CUACUUCAACCAAACGGUCUG [Fam1A.1 aminoacylation ribozyme variant]", "self-aminoacylation": 0.71}
{"sequence_input": "CUACUUCACACAAUCGGUCUG [Fam1A.1 aminoacylation ribozyme variant]", "self-aminoacylation": 0.869}
{"sequence_input": "AUUACCUUGGUGAUCGAGUGA [Fam2.1 aminoacylation ribozyme variant]", "self-aminoacylation": 19.7}
{"sequence_input": "AUUCAGCUAGGUAAUCGGGUG [Fam2.2 aminoacylation ribozyme variant]", "self-aminoacylation": 23.8}
{"sequence_input": "AGUCACCUAGCUCAUCGGGUG [Fam2.2 aminoacylation ribozyme variant]", "self-aminoacylation": 13.9}
{"sequence_input": "CCACACUUCAAGUCAUCGGUC [Fam1B.1 aminoacylation ribozyme variant]", "self-aminoacylation": 0.991}
{"sequence_input": "AUUACACUGGUCAUCGAGUGA [Fam2.1 aminoacylation ribozyme variant]", "self-aminoacylation": 19.7}
{"sequence_input": "CUACUUCAACCAAUCGGCCUG [Fam1A.1 aminoacylation ribozyme variant]", "self-aminoacylation": 47.8}
{"sequence_input": "CUACUUCAAAUAAUCGGUGUG [Fam1A.1 aminoacylation ribozyme variant]", "self-aminoacylation": 3.23}
{"sequence_input": "UCCCACUUCAAGCAAUCGGUC [Fam1B.1 aminoacylation ribozyme variant]", "self-aminoacylation": 37}
{"sequence_input": "CCACACCUCAAGCAAUCGCUC [Fam1B.1 aminoacylation ribozyme variant]", "self-aminoacylation": 9.63}
{"sequence_input": "ACGCACCUAGGUCAUCGGGUG [Fam2.2 aminoacylation ribozyme variant]", "self-aminoacylation": 29}
{"sequence_input": "CCACACCUCAAGCAAUUGGUC [Fam1B.1 aminoacylation ribozyme variant]", "self-aminoacylation": 1.05}
{"sequence_input": "AAGUUACCUAAUAGUCGCAAG [Fam3.1 aminoacylation ribozyme variant]", "self-aminoacylation": 2.52}
{"sequence_input": "CCACACCUCAAGCAGUCGGUC [Fam1B.1 aminoacylation ribozyme variant]", "self-aminoacylation": 0.725}
{"sequence_input": "AGUCACCUAGGGCAUCGGGUG [Fam2.2 aminoacylation ribozyme variant]", "self-aminoacylation": 34.4}
{"sequence_input": "CUUAACCUGGUCAUCGAGUGA [Fam2.1 aminoacylation ribozyme variant]", "self-aminoacylation": 5.1}
{"sequence_input": "CGACACUUCAAGCAGUCGGUC [Fam1B.1 aminoacylation ribozyme variant]", "self-aminoacylation": 1.04}
{"sequence_input": "CUACUUCAAACAAUCGUCCUG [Fam1A.1 aminoacylation ribozyme variant]", "self-aminoacylation": 0.798}
{"sequence_input": "AUUACCCGGGUCAUCGAGCGA [Fam2.1 aminoacylation ribozyme variant]", "self-aminoacylation": 1.09}
{"sequence_input": "CCACACUUCAAGCAUUCGGUG [Fam1B.1 aminoacylation ribozyme variant]", "self-aminoacylation": 68.5}
{"sequence_input": "UUUAGCCUGGUCAUCGAGUGA [Fam2.1 aminoacylation ribozyme variant]", "self-aminoacylation": 21.9}
{"sequence_input": "CCACACUUCACGCAAUCGGUU [Fam1B.1 aminoacylation ribozyme variant]", "self-aminoacylation": 0.906}

====

- System: biotinyl-Val-oxazolone
- assay_text: self-aminoacylation, catalytic enhancement (BVO) (fold over background); higher = more active; k-Seq, kA / k0A0; sequences stand for … in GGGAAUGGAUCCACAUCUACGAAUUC…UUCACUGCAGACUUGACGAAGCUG
This sample holds only a part of the variants without activity.
Using self-aminoacylation as the sorting value, the categories are zone 1: < 1; zone 2: ≥ 1 and < 2; zone 3: ≥ 2

{"sequence_input": "AUUCAGCAAGGUCAUCGGGUG [Fam2.2 aminoacylation ribozyme variant]", "category_label": "zone 3"}
{"sequence_input": "GAGUUUGCUAAUAGUCGUAAG [Fam3.1 aminoacylation ribozyme variant]", "category_label": "zone 2"}
{"sequence_input": "CUACUUCAGACAAGCGGUCUG [Fam1A.1 aminoacylation ribozyme variant]", "category_label": "zone 1"}
{"sequence_input": "CUACUGCAGACAAUCGGUCUG [Fam1A.1 aminoacylation ribozyme variant]", "category_label": "zone 2"}
{"sequence_input": "AUGAACCUAGGUCAUCGGGUG [Fam2.2 aminoacylation ribozyme variant]", "category_label": "zone 3"}
{"sequence_input": "AAUACCCUAGUCAUCGAGUGA [Fam2.1 aminoacylation ribozyme variant]", "category_label": "zone 3"}
{"sequence_input": "AUUACGUUGGUCAUCGAGUGA [Fam2.1 aminoacylation ribozyme variant]", "category_label": "zone 3"}
{"sequence_input": "CUACUUCAAGCAACCGGUCUG [Fam1A.1 aminoacylation ribozyme variant]", "category_label": "zone 1"}
{"sequence_input": "AUUACCCUGGUGGUCGAGUGA [Fam2.1 aminoacylation ribozyme variant]", "category_label": "zone 2"}
{"sequence_input": "CCACGCUUCAACCAAUCGGUC [Fam1B.1 aminoacylation ribozyme variant]", "category_label": "zone 2"}
{"sequence_input": "AAGUUUGCUAAUAUUCGCAUG [Fam3.1 aminoacylation ribozyme variant]", "category_label": "zone 2"}
{"sequence_input": "CCACACGUCAAACAAUCGGUC [Fam1B.1 aminoacylation ribozyme variant]", "category_label": "zone 2"}
{"sequence_input": "CAACACUUCAAGCGAUCGGUC [Fam1B.1 aminoacylation ribozyme variant]", "category_label": "zone 2"}
{"sequence_input": "AAGUUUGCGAAUAGUCGCAGG [Fam3.1 aminoacylation ribozyme variant]", "category_label": "zone 2"}
{"sequence_input": "AUGUUUGCUAAUGGUCGCAAG [Fam3.1 aminoacylation ribozyme variant]", "category_label": "zone 1"}
{"sequence_input": "AUUAUCCUGAUCAUCGAGUGA [Fam2.1 aminoacylation ribozyme variant]", "category_label": "zone 3"}
